System: TNFα production by THP-1 cells
Assay: TNF-alpha production by macrophages (ELISA)
Assay type: cell-based, human
Conditions: opsonized zymosan stimulation, 24 hours; average of n=4 experiments
measured.attribute: pIC50
In plain terms, pIC50 is the concentration in mol/L turned into minus its base-10 logarithm.

Consider the compound Cc1ccc(S(=O)(=O)/C=C/C#N)cc1 [Bay 11-7082] . State its measured pIC50. 6.09
